Each record here notes measured glycan array binding signal (z-score).
target: GlcNAc(b1-3)Gal(b1-4)GlcNAc(b1-3)Gal(b1-4)GlcNAc(b1-3)Gal(b1-4)GlcNAc(b1-2)[GlcNAc(b1-3)Gal(b1-4)GlcNAc(b1-3)Gal(b1-4)GlcNAc(b1-3)Gal(b1-4)GlcNAc(b1-6)]Man(a1-6)[GlcNAc(b1-3)Gal(b1-4)GlcNAc(b1-3)Gal(b1-4)GlcNAc(b1-3)Gal(b1-4)GlcNAc(b1-2)Man(a1-3)]Man(b1-4)GlcNAc(b1-4)[Fuc(a1-6)]GlcNAc; assay: glycan array binding signal (z-score within array); higher = stronger binding; conditions: glycan notation: IUPAC condensed, linker removed
Only a selection was taken, and the strongest signals are over-represented in it overall.

Consider the reported glycan array binding signal (z-score) for these binders:
Lab note: measured glycan array binding signal (z-score) of LTL (Lotus tetragonolobus), P19664 (protein) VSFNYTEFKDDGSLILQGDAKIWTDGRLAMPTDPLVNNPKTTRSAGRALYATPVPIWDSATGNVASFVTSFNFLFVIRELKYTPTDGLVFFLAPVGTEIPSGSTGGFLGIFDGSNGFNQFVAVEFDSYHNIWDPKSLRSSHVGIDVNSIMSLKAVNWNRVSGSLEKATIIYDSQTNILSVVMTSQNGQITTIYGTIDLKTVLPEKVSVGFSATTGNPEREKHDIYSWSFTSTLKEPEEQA was 0.185

Lab note: measured glycan array binding signal (z-score) of Gal 4 (Mus musculus), P56470 (protein) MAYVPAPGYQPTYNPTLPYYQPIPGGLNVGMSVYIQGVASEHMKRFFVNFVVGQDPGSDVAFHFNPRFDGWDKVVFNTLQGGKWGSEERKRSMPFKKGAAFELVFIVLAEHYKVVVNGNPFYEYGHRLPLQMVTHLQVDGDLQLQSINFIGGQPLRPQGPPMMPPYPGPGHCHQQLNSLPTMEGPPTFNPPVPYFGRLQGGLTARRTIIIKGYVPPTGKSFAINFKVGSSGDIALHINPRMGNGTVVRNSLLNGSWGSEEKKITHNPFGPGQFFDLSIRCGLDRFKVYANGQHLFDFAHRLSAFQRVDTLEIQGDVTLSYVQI was -0.244

***
Lab note: measured glycan array binding signal (z-score) of HML-Native (Hypnea musciformis), P84871 (protein) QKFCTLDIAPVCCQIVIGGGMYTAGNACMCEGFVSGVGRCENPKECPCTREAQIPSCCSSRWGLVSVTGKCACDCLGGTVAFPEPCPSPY was 1.38

Lab note: measured glycan array binding signal (z-score) of RsaA-N-term (Caulobacter crescentus), P35828 (protein) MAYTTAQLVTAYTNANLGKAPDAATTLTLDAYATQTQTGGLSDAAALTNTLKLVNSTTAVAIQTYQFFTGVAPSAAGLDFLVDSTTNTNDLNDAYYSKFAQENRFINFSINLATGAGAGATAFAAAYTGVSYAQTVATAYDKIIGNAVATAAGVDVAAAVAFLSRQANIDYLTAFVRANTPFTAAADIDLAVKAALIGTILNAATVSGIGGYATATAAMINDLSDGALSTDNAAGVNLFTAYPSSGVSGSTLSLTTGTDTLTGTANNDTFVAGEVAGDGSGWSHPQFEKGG was 0.217

Lab note: measured glycan array binding signal (z-score) of TIM1 (protein) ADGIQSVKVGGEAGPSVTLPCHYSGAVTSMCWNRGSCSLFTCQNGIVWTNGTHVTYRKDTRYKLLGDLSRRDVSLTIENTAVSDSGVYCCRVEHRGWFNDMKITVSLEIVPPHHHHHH was 1.02

Lab note: measured glycan array binding signal (z-score) of KISKRILTGKK [NK11 (Sus scrofa)] was 2.73

Lab note: measured glycan array binding signal (z-score) of MUB70 (Lactobacillus reuteri) (protein) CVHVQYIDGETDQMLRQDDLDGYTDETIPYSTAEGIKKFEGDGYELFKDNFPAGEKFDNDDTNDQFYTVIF was 0.94
